# credit: ChEMBL document CHEMBL1152546

System: Mus musculus
Assay text: Analgesic activity in ICR mouse assessed as pain threshold variation at 25 umol/kg, po administered as single dose measured after 150 mins by tail flick test relative to control
Format: functional
Assignment: determine reported Activity for the given compounds.

Data request: Under Mus musculus: Activity value of NC(=O)C[C@H](NC(=O)CN(c1ncnc2c1ncn2C1CCCCO1)C1CC1)C(=O)OCc1ccccc1 (some centres undefined) ?
Data returned: 21.71%

Data request: Under Mus musculus: Activity value of CC[C@H](C)[C@H](NC(=O)CN(c1nc(Cl)nc2[nH]cnc12)C1CC1)C(=O)O ?
Data returned: 6.71%

Data request: Under Mus musculus: Activity value of O=C(CN(c1nc(Cl)nc2[nH]cnc12)C1CC1)N[C@@H](Cc1ccc(O)cc1)C(=O)O ?
Data returned: 13.71%

Data request: Under Mus musculus: Activity value of N=C(N)NCCC[C@H](NC(=O)CN(c1ncnc2c1ncn2C1CCCCO1)C1CC1)C(=O)OCc1ccccc1 (some centres undefined) ?
Data returned: 19.6%
